# IC50 at 72 h listing for each entry below
- Method Summary: Cytotoxicity assay (MTT, inhibition of cell proliferation)
- Assay type: cell-based, rat
- Applied Conditions: rat, H9c2(2-1) rat cardiomyoblast cells; H9c2(2-1) cells, 72 h exposure, MTT, mean of six experiments ± S.D.; read-out: Cytotoxicity IC50
Give the value in nM but do not write nM after it.

Compound | IC50 at 72 h (nM)
COc1cccc2c1C(=O)c1c(O)c3c(c(O)c1C2=O)C[C@@](O)(C(=O)CO)C[C@@H]3O[C@H]1C[C@H](N)[C@H](O)[C@H](C)O1 [DOX, doxorubicin, reference compound] | 35

Exam item: Tell me the measured IC50 at 72 h of COc1cccc2c1C(=O)c1c(O)c3c(c(O)c1C2=O)C[C@@](O)(C(C)=O)C[C@@H]3O[C@H]1C[C@H](N)[C@H](O)[C@H](C)O1 [DRB, daunorubicin, reference compound] , please.
Marked response: 76

* * *

- Method Summary: Cytotoxicity assay (MTT, inhibition of cell proliferation)
- Type: cell-based, rat
- Applied Conditions: rat
Reported Endpoint: IC50 at 72 h (nM)
Give the value in nM but do not write nM after it.

Exam item: Tell me the measured IC50 at 72 h of COc1cccc2c1C(=O)c1c(O)c3c(c(O)c1C2=O)C[C@@](O)(C(C)=O)C[C@@H]3O[C@H]1C[C@H](N=CN2CCOCC2)[C@H](O)[C@H](C)O1 [DRBM] , please.
Marked response: 626

* * *

# IC50 at 72 h listing for each entry below
- Method Summary: Cytotoxicity assay (MTT, inhibition of cell proliferation)
- Assay type: cell-based, rat
- Applied Conditions: rat; H9c2(2-1) cells, 72 h exposure, MTT, mean of six experiments ± S.D.; read-out: Cytotoxicity IC50
Give the value in nM but do not write nM after it.

Compound | IC50 at 72 h / nM
COc1cccc2c1C(=O)c1c(O)c3c(c(O)c1C2=O)C[C@@](O)(C(C)=O)C[C@@H]3O[C@H]1C[C@H](N=CN2CCCCCC2)[C@H](O)[C@H](C)O1 [DRBH] | 172
COc1cccc2c1C(=O)c1c(O)c3c(c(O)c1C2=O)C[C@@](O)(C(=O)CO)C[C@@H]3O[C@H]1C[C@H](N=CN2CCCCCC2)[C@H](O)[C@H](C)O1 [DOXH] | 87

Now consider a different compound.
Exam item: Tell me the measured IC50 at 72 h of COc1cccc2c1C(=O)c1c(O)c3c(c(O)c1C2=O)C[C@@](O)(C(=O)CO)C[C@@H]3O[C@H]1C[C@H](N=CN2CCOCC2)[C@H](O)[C@H](C)O1 [DOXM] , please.
Marked response: 138
